experimental_details: Testosterone solubility in aqueous media (SSF) containing various CIAs
Type: physicochemical
applied_conditions: Simulated Saliva Fluid (SSF) containing CIA, aqueous with cosolvent or surfactant or cyclodextrin, thermodynamic from solid, Solubility of Testosterone in CIA Containing SSF, SSF with 20% oleic acid (oleic acid itself not soluble in SSF)
measured_property: solubility (µg/mL)
Use µg/mL as the unit, but write only the number.

Item `C[C@]12CC[C@H]3[C@@H](CCC4=CC(=O)CC[C@@]43C)[C@@H]1CC[C@@H]2O` has what recorded solubility?
29

* * *

experimental_details: Testosterone solubility in aqueous media (SSF) containing various CIAs
Format: physicochemical
applied_conditions: Simulated Saliva Fluid (SSF) containing CIA, aqueous with cosolvent or surfactant or cyclodextrin, thermodynamic from solid, Solubility of Testosterone in CIA Containing SSF, SSF with 10% polyethylene glycol
Protocol: Then the sample was filtered through a 0.45 μm polyvinylidene fluoride (PVDF) and the filtrate was analyzed by HPLC.
measured_property: solubility

Item C[C@]12CC[C@H]3[C@@H](CCC4=CC(=O)CC[C@@]43C)[C@@H]1CC[C@@H]2O [Testosterone] has what recorded solubility?
45 µg/mL

* * *

experimental_details: Testosterone solubility in aqueous media (SSF) containing various CIAs
Format: physicochemical
applied_conditions: Simulated Saliva Fluid (SSF) containing CIA, aqueous with cosolvent or surfactant or cyclodextrin, thermodynamic from solid, Solubility of Testosterone in CIA Containing SSF, saturated CIA solution, 0.53 g of vitamin E TPGS in SSF
measured_property: solubility (µg/mL)
Use µg/mL as the unit, but write only the number.

Item C[C@]12CC[C@H]3[C@@H](CCC4=CC(=O)CC[C@@]43C)[C@@H]1CC[C@@H]2O [Testosterone] has what recorded solubility?
4190

* * *

experimental_details: Testosterone solubility in aqueous media (SSF) containing various CIAs
Format: physicochemical
applied_conditions: Simulated Saliva Fluid (SSF) containing CIA, aqueous with cosolvent or surfactant or cyclodextrin, thermodynamic from solid, Solubility of Testosterone in CIA Containing SSF, SSF with 10% lauroyl polyoxyl-32 glycerides
measured_property: solubility (µg/mL)
Use µg/mL as the unit, but write only the number.

Item `C[C@]12CC[C@H]3[C@@H](CCC4=CC(=O)CC[C@@]43C)[C@@H]1CC[C@@H]2O` has what recorded solubility?
694

* * *

experimental_details: Testosterone solubility in aqueous media (SSF) containing various CIAs
Type: physicochemical
applied_conditions: Simulated Saliva Fluid (SSF) containing CIA, aqueous with cosolvent or surfactant or cyclodextrin, thermodynamic from solid, Solubility of Testosterone in CIA Containing SSF, SSF with 5% lauroyl polyoxyl-32 glycerides
measured_property: solubility (µg/mL)
Use µg/mL as the unit, but write only the number.

Item `C[C@]12CC[C@H]3[C@@H](CCC4=CC(=O)CC[C@@]43C)[C@@H]1CC[C@@H]2O` has what recorded solubility?
358

* * *

experimental_details: Solubility of crystalline drug in water
applied_conditions: 37 °C
measured_property: solubility

Item `C[C@]12CC[C@H]3[C@@H](CCC4=CC(=O)CC[C@@]43C)[C@@H]1CC[C@@H]2O` has what recorded solubility?
~27 µg/mL

* * *

experimental_details: Testosterone solubility in aqueous media (SSF) containing various CIAs
Format: physicochemical
applied_conditions: Simulated Saliva Fluid (SSF) containing CIA, aqueous with cosolvent or surfactant or cyclodextrin, thermodynamic from solid, Solubility of Testosterone in CIA Containing SSF, SSF with 10% oleic acid (oleic acid itself not soluble in SSF)
Method: Then the sample was filtered through a 0.45 μm polyvinylidene fluoride (PVDF) and the filtrate was analyzed by HPLC.
measured_property: solubility (µg/mL)
Use µg/mL as the unit, but write only the number.

Item C[C@]12CC[C@H]3[C@@H](CCC4=CC(=O)CC[C@@]43C)[C@@H]1CC[C@@H]2O [Testosterone] has what recorded solubility?
29

Values were extracted from patent US10821118B2.
